Values compiled from paper PMC11945486.

# target system: human TAS1R2-WT/TAS1R3-M110T (Homo sapiens, UniProt Q7RTX0+Q8TE23, M110T)
# Construct: expressed in transfected cells; host or cells: HEK293T stably expressing Gα16gust44
# Sequence (Q8TE23 20-839): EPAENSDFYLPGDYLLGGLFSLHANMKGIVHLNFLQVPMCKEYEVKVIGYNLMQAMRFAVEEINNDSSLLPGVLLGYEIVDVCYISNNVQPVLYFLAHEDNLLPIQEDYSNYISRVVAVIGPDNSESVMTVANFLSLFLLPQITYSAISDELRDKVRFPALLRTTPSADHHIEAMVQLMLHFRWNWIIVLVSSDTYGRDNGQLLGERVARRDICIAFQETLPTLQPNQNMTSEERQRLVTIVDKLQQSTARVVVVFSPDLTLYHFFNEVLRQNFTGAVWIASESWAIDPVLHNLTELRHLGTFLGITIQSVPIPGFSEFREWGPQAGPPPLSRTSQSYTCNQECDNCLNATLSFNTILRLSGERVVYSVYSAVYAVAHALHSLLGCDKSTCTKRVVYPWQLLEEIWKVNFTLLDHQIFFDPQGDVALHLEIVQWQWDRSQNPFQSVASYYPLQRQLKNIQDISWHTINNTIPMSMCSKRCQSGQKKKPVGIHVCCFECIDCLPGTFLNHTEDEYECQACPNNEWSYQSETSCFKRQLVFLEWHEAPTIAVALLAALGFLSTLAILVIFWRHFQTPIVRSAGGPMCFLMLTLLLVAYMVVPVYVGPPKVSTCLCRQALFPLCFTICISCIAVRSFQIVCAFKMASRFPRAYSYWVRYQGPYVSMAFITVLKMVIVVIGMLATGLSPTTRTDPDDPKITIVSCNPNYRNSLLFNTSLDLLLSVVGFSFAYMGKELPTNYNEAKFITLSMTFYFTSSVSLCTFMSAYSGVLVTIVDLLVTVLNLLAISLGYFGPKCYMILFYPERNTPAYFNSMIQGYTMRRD
# Sequence (Q7RTX0 21-852 M110T): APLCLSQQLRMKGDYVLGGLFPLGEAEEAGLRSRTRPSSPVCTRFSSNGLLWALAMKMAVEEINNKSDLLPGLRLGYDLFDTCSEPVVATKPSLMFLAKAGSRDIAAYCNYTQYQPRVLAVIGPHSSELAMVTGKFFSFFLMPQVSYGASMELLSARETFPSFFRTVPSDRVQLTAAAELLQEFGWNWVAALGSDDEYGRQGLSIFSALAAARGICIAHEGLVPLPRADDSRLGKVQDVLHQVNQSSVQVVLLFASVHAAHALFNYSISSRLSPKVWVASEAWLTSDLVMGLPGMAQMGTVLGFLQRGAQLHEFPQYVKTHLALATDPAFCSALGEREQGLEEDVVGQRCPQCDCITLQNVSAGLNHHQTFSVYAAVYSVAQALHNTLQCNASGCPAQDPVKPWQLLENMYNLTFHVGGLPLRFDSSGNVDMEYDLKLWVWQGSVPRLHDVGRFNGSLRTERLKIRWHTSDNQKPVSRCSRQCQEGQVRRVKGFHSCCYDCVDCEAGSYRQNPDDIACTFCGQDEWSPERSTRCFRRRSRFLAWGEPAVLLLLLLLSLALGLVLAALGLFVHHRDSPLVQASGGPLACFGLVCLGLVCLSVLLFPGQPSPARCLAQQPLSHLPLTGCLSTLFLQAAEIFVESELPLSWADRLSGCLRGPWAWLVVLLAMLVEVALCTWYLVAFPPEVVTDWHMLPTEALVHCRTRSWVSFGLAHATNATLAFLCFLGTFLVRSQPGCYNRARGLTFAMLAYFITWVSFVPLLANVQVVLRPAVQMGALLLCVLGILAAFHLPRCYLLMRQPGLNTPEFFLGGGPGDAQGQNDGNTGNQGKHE
# assay notes: Calcium mobilisation assay, TAS1R2-WT with TAS1R3 variant M110T
# Type: cell-based
# setup conditions: read-out: EC50
assay metric: EC50 (µM)

Past entries and their recorded results:
- compound: "OC[C@H]1O[C@H](O[C@]2(CCl)O[C@H](CCl)[C@@H](O)[C@@H]2O)[C@H](O)[C@@H](O)[C@H]1Cl [Sucralose]"
  EC50 [µM]: 282
- compound: "COC(=O)[C@H](Cc1ccccc1)NC(=O)[C@H](CC(=O)O)NCCC(C)(C)C [Neotame]"
  EC50 [µM]: 2.7
- compound: "CC1=CC(=O)NS(=O)(=O)O1 [Acesulfame K, acesulfame K]"
  EC50 [µM]: 1060
- compound: "C=C1C[C@@]23CC[C@H]4[C@@](C)(CCC[C@@]4(C)C(=O)O[C@@H]4O[C@H](CO)[C@@H](O)[C@H](O[C@@H]5O[C@H](CO)[C@@H](O)[C@H](O)[C@H]5O)[C@H]4O[C@@H]4O[C@H](CO)[C@@H](O)[C@H](O)[C@H]4O)[C@@H]2CC[C@]1(O[C@@H]1O[C@H](CO)[C@@H](O)[C@H](O[C@@H]2O[C@H](CO)[C@@H](O)[C@H](O)[C@H]2O)[C@H]1O[C@@H]1O[C@H](CO)[C@@H](O)[C@H](O)[C@H]1O)C3 [Rebaudioside M, rebaudioside M]"
  EC50 [µM]: 103
- compound: "C[C@H](CC[C@@H](O[C@@H]1O[C@H](CO[C@@H]2O[C@H](CO)[C@@H](O)[C@H](O)[C@H]2O)[C@@H](O)[C@H](O)[C@H]1O[C@@H]1O[C@H](CO)[C@@H](O)[C@H](O)[C@H]1O)C(C)(C)O)[C@H]1CC[C@@]2(C)[C@@H]3CC=C4[C@@H](CC[C@H](O[C@@H]5O[C@H](CO[C@@H]6O[C@H](CO)[C@@H](O)[C@H](O)[C@H]6O)[C@@H](O)[C@H](O)[C@H]5O)C4(C)C)[C@]3(C)[C@H](O)C[C@]12C [Mogroside V, mogroside V]"
  EC50 [µM]: 94.5

[I] COc1ccc(CCC(=O)c2c(O)cc(O[C@@H]3O[C@H](CO)[C@@H](O)[C@H](O)[C@H]3O[C@@H]3O[C@@H](C)[C@H](O)[C@@H](O)[C@H]3O)cc2O)cc1O [NHDC, neohesperidin dihydrochalcone]
[II] C=C(C)[C@@H]1CC=C(/C=N/O)CC1 [Perillartine, perillartine]
Sort I and II by EC50 descending and give the first. Lab log: write the label of the selected item as the result. I
